EXPERIMENT SUMMARY: qHTS RealTime-Glo MT Cell Viability Assay in HEK293 cells - 40 hour (AID 1224874); note: % is set by controls: 0 for no effect and ±100 for the full control effect
MEASUREMENT SETUP: RealTime-Glo luminescence; stronger effect = lower value
Records with an inconclusive call do not appear.
Quick reference: max response of the listed items.
MEASUREMENT LABEL: max response (%)

[
  {
    "MOLECULE": "CC1OC1C1CCC2(C)OC2C1 (stereo not drawn)",
    "MEASUREMENT LABEL": "max response",
    "VALUE MEASURED": 1.23
  },
  {
    "MOLECULE": "Cc1coc2ccccc2c1=O",
    "MEASUREMENT LABEL": "max response",
    "VALUE MEASURED": -0.146
  },
  {
    "MOLECULE": "C=CCCC(=O)O",
    "MEASUREMENT LABEL": "max response",
    "VALUE MEASURED": 7.36
  },
  {
    "MOLECULE": "CC1=CC(=O)[C@H]2C[C@@H]1C2(C)C",
    "MEASUREMENT LABEL": "max response",
    "VALUE MEASURED": -1.77
  },
  {
    "MOLECULE": "CCCCCCCCCCCCCCC(=O)O",
    "MEASUREMENT LABEL": "max response",
    "VALUE MEASURED": 23.9
  },
  {
    "MOLECULE": "CC(=O)c1ccc2ccccc2c1",
    "MEASUREMENT LABEL": "max response",
    "VALUE MEASURED": 8.54
  },
  {
    "MOLECULE": "CO[Si](C)(OC)c1ccccc1",
    "MEASUREMENT LABEL": "max response",
    "VALUE MEASURED": -2.44
  },
  {
    "MOLECULE": "Cc1ccc(C(=O)c2ccccc2)cc1",
    "MEASUREMENT LABEL": "max response",
    "VALUE MEASURED": -1.28
  },
  {
    "MOLECULE": "CO/N=C(\\C(=O)N[C@@H]1C(=O)N2C(C(=O)O)=C(CSc3nc(=O)c(O)nn3C)CS[C@H]12)c1csc(N)n1",
    "MEASUREMENT LABEL": "max response",
    "VALUE MEASURED": 11.9
  },
  {
    "MOLECULE": "CCCO[Si](OCCC)(OCCC)OCCC",
    "MEASUREMENT LABEL": "max response",
    "VALUE MEASURED": 2.55
  },
  {
    "MOLECULE": "CN(C)C(=O)Oc1ccc[n+](C)c1",
    "MEASUREMENT LABEL": "max response",
    "VALUE MEASURED": 5.97
  },
  {
    "MOLECULE": "CCOC(=O)COc1cc(-n2ncc(C(F)(F)F)c(C)c2=O)c(F)cc1Cl",
    "MEASUREMENT LABEL": "max response",
    "VALUE MEASURED": -4.34
  },
  {
    "MOLECULE": "CC(N)C12CC3CC(CC(C3)C1)C2 (stereo not drawn)",
    "MEASUREMENT LABEL": "max response",
    "VALUE MEASURED": -3.62
  },
  {
    "MOLECULE": "C=CN1CCCCCC1=O",
    "MEASUREMENT LABEL": "max response",
    "VALUE MEASURED": 3.47
  },
  {
    "MOLECULE": "CC(C)(N)C#N",
    "MEASUREMENT LABEL": "max response",
    "VALUE MEASURED": -0.492
  },
  {
    "MOLECULE": "CCCCOCCOC(=O)COc1cc(Cl)c(Cl)cc1Cl",
    "MEASUREMENT LABEL": "max response",
    "VALUE MEASURED": 4.7
  },
  {
    "MOLECULE": "[Ca+2]",
    "MEASUREMENT LABEL": "max response",
    "VALUE MEASURED": 5.91
  },
  {
    "MOLECULE": "[K+]",
    "MEASUREMENT LABEL": "max response",
    "VALUE MEASURED": 21.2
  },
  {
    "MOLECULE": "O=S(=O)(O)c1cccc(S(=O)(=O)O)c1",
    "MEASUREMENT LABEL": "max response",
    "VALUE MEASURED": 15.6
  },
  {
    "MOLECULE": "COc1c(N2CCNC(C)C2)c(F)cc2c(=O)c(C(=O)O)cn(C3CC3)c12 (stereo not drawn)",
    "MEASUREMENT LABEL": "max response",
    "VALUE MEASURED": 14
  },
  {
    "MOLECULE": "COc1ccccc1OCC1CNC(=O)O1 (stereo not drawn)",
    "MEASUREMENT LABEL": "max response",
    "VALUE MEASURED": 8.57
  },
  {
    "MOLECULE": "O=C(O)CCCC[P+](c1ccccc1)(c1ccccc1)c1ccccc1",
    "MEASUREMENT LABEL": "max response",
    "VALUE MEASURED": -10.4
  },
  {
    "MOLECULE": "O=C(O)CNC(=O)c1ccc(CO)o1",
    "MEASUREMENT LABEL": "max response",
    "VALUE MEASURED": 3.96
  },
  {
    "MOLECULE": "CCCCS(=O)(=O)N[C@@H](Cc1ccc(OCCCCC2CCNCC2)cc1)C(=O)O",
    "MEASUREMENT LABEL": "max response",
    "VALUE MEASURED": -0.348
  },
  {
    "MOLECULE": "c1ccc(Cc2ccccc2)cc1",
    "MEASUREMENT LABEL": "max response",
    "VALUE MEASURED": -0.7
  },
  {
    "MOLECULE": "CCC(C)(CN(C)C)OC(=O)c1ccccc1 (stereo not drawn)",
    "MEASUREMENT LABEL": "max response",
    "VALUE MEASURED": 12.1
  },
  {
    "MOLECULE": "NS(=O)(=O)Cc1noc2ccccc12",
    "MEASUREMENT LABEL": "max response",
    "VALUE MEASURED": 1.21
  },
  {
    "MOLECULE": "CC(=O)N1C[C@H](O)C[C@H]1C(=O)O",
    "MEASUREMENT LABEL": "max response",
    "VALUE MEASURED": 6.07
  },
  {
    "MOLECULE": "Cc1ccc(C(=O)Nc2ccc(S(=O)(=O)O)c3cc(S(=O)(=O)O)cc(S(=O)(=O)O)c23)cc1NC(=O)c1cccc(NC(=O)Nc2cccc(C(=O)Nc3cc(C(=O)Nc4ccc(S(=O)(=O)O)c5cc(S(=O)(=O)O)cc(S(=O)(=O)O)c45)ccc3C)c2)c1",
    "MEASUREMENT LABEL": "max response",
    "VALUE MEASURED": 4.78
  },
  {
    "MOLECULE": "C1CCC2=NCCCN2CC1",
    "MEASUREMENT LABEL": "max response",
    "VALUE MEASURED": 20.2
  },
  {
    "MOLECULE": "C=C(C)C(=O)OCC(O)CO (stereo not drawn)",
    "MEASUREMENT LABEL": "max response",
    "VALUE MEASURED": 2.31
  },
  {
    "MOLECULE": "CC(CC=O)CC(C)(C)C (stereo not drawn)",
    "MEASUREMENT LABEL": "max response",
    "VALUE MEASURED": -0.119
  },
  {
    "MOLECULE": "CNC(=O)Nc1ccc(Cl)c(Cl)c1",
    "MEASUREMENT LABEL": "max response",
    "VALUE MEASURED": -26.8
  },
  {
    "MOLECULE": "CCCCCCCCCC[N+](C)(C)[O-]",
    "MEASUREMENT LABEL": "max response",
    "VALUE MEASURED": -6.97
  },
  {
    "MOLECULE": "Cc1ccc(-c2ncc(Cl)cc2-c2ccc(S(C)(=O)=O)cc2)cn1",
    "MEASUREMENT LABEL": "max response",
    "VALUE MEASURED": -19.4
  },
  {
    "MOLECULE": "OCCc1ccccn1",
    "MEASUREMENT LABEL": "max response",
    "VALUE MEASURED": 3.13
  },
  {
    "MOLECULE": "COc1cc(C)nc(-n2nc(C)cc2OC)n1",
    "MEASUREMENT LABEL": "max response",
    "VALUE MEASURED": -0.0998
  },
  {
    "MOLECULE": "CC(C(=O)O)c1cccc(Oc2ccccc2)c1 (stereo not drawn)",
    "MEASUREMENT LABEL": "max response",
    "VALUE MEASURED": -2.21
  },
  {
    "MOLECULE": "C[N+](C)(C)CCCCCCCCCC[N+](C)(C)C",
    "MEASUREMENT LABEL": "max response",
    "VALUE MEASURED": 9.07
  },
  {
    "MOLECULE": "Cc1ccccc1N=C(N)N=C(N)N",
    "MEASUREMENT LABEL": "max response",
    "VALUE MEASURED": -9.52
  },
  {
    "MOLECULE": "C[C@@H]1C[C@H]2[C@@H]3C[C@H](F)C4=CC(=O)C(Cl)=C[C@]4(C)[C@@]3(F)[C@@H](O)C[C@]2(C)[C@@]1(O)C(=O)CO",
    "MEASUREMENT LABEL": "max response",
    "VALUE MEASURED": -27.2
  },
  {
    "MOLECULE": "CCC1C(=O)OCC1Cc1cncn1C (stereo not drawn)",
    "MEASUREMENT LABEL": "max response",
    "VALUE MEASURED": 0.511
  },
  {
    "MOLECULE": "Cc1c(N)c(=O)n(-c2ccccc2)n1C",
    "MEASUREMENT LABEL": "max response",
    "VALUE MEASURED": -5.41
  },
  {
    "MOLECULE": "CCO[Si](OCC)(OCC)c1ccccc1",
    "MEASUREMENT LABEL": "max response",
    "VALUE MEASURED": 10.1
  },
  {
    "MOLECULE": "CCOC(=O)OC(C)OC1=C(C(=O)Nc2ccccn2)N(C)S(=O)(=O)c2ccccc21 (stereo not drawn)",
    "MEASUREMENT LABEL": "max response",
    "VALUE MEASURED": 1.81
  },
  {
    "MOLECULE": "CN(C)[C@@H]1C(=O)C(C(=O)NCN2CCCC2)=C(O)[C@@]2(O)C(=O)C3=C(O)c4c(O)cccc4[C@@](C)(O)C3C[C@@H]12 (stereo partly drawn)",
    "MEASUREMENT LABEL": "max response",
    "VALUE MEASURED": 7.86
  },
  {
    "MOLECULE": "CCCCCC(=O)OCCc1ccccc1",
    "MEASUREMENT LABEL": "max response",
    "VALUE MEASURED": 5.56
  },
  {
    "MOLECULE": "CCN(C=O)CC",
    "MEASUREMENT LABEL": "max response",
    "VALUE MEASURED": 2.6
  },
  {
    "MOLECULE": "CC(=O)C1CCCCC1=O (stereo not drawn)",
    "MEASUREMENT LABEL": "max response",
    "VALUE MEASURED": 15.3
  },
  {
    "MOLECULE": "CC(C)(C)C(=O)Oc1ccc(S(=O)(=O)Nc2ccccc2C(=O)NCC(=O)O)cc1",
    "MEASUREMENT LABEL": "max response",
    "VALUE MEASURED": 7.92
  },
  {
    "MOLECULE": "Cc1ccnc(NS(=O)(=O)c2ccc(N)cc2)n1",
    "MEASUREMENT LABEL": "max response",
    "VALUE MEASURED": 6.66
  },
  {
    "MOLECULE": "CC1=NS(=O)(=O)c2cc(Cl)ccc2N1",
    "MEASUREMENT LABEL": "max response",
    "VALUE MEASURED": 2.07
  },
  {
    "MOLECULE": "CCCCCCCCCCCCCCCCCCO",
    "MEASUREMENT LABEL": "max response",
    "VALUE MEASURED": -1.19
  }
]
